- target.of.assay: HDAC3 (Homo sapiens)
- Construct: endogenous in cells; host or cells: HeLa
- Sequence (O15379 whole entry): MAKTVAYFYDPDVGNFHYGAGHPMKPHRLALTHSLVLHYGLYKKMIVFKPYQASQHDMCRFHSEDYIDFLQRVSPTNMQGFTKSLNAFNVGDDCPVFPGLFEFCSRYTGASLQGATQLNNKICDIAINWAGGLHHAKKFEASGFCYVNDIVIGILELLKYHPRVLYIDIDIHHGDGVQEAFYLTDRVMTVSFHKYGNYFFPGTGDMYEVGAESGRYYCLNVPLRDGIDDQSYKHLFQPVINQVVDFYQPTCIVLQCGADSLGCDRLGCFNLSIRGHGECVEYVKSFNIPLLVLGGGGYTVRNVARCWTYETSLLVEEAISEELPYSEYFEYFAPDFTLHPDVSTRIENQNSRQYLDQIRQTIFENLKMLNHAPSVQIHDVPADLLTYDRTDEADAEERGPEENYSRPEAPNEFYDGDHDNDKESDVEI
- Sequence (Q9Y618 whole entry partner): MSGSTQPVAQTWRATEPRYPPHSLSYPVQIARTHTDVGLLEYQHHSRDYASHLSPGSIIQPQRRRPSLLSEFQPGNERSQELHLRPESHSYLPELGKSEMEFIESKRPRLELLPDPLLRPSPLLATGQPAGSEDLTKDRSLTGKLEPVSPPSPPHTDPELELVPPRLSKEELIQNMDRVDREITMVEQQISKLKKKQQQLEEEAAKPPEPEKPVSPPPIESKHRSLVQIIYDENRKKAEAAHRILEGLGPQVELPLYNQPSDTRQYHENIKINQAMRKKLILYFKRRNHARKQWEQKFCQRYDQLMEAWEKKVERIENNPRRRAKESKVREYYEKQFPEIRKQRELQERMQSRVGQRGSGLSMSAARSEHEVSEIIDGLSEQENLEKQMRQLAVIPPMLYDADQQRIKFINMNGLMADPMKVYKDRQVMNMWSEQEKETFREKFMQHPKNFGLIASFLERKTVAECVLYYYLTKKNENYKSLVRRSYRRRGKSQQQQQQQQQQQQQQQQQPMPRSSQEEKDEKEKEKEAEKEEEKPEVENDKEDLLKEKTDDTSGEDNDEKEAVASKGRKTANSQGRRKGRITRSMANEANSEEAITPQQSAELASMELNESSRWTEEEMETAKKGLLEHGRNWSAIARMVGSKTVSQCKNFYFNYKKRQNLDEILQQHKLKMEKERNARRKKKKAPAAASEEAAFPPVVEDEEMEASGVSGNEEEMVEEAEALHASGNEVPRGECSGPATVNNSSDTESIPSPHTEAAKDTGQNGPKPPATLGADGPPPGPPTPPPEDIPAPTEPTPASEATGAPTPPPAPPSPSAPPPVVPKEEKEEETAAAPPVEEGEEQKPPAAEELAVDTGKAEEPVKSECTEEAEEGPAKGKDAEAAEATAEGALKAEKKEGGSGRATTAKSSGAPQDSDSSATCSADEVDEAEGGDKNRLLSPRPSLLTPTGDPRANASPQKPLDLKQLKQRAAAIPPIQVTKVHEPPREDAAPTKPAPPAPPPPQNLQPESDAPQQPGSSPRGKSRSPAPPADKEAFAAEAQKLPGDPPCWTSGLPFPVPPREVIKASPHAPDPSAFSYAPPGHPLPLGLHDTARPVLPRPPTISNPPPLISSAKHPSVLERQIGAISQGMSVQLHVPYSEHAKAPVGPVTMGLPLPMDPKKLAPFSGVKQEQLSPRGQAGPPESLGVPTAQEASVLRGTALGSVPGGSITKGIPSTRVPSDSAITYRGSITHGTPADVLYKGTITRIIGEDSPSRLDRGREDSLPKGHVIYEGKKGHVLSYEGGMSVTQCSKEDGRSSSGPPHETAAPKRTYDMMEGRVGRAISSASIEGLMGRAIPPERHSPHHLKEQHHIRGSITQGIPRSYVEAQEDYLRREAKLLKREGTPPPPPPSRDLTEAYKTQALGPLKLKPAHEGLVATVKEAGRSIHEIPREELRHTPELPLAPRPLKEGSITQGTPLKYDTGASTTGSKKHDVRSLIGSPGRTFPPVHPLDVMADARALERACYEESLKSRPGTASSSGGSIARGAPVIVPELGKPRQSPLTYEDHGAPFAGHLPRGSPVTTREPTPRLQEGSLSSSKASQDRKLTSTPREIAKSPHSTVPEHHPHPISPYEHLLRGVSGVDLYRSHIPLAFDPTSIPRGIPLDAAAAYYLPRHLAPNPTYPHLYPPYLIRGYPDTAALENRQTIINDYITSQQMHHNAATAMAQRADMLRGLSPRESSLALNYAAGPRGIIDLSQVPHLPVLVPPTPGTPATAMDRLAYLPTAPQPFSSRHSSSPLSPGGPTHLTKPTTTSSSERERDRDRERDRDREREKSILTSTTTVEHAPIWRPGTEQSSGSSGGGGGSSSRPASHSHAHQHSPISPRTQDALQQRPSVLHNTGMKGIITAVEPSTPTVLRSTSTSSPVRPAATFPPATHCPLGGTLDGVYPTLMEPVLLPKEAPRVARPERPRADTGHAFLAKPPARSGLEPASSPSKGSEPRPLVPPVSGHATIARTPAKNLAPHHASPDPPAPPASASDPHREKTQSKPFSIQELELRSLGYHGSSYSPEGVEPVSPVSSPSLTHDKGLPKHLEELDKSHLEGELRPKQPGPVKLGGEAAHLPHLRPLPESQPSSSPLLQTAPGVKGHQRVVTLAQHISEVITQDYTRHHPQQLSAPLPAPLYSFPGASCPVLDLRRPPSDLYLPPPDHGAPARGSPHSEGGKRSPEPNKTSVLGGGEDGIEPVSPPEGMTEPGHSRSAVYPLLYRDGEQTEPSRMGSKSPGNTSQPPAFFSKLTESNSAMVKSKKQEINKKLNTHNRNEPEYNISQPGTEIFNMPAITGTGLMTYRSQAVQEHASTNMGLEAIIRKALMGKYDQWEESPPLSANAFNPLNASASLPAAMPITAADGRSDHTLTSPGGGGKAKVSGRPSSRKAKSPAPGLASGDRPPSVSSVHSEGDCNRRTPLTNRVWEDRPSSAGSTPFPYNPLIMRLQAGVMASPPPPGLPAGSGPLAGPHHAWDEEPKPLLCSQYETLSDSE
- test: gdf11 reporter gene assay in HeLa cells
- Assay type: cell-based
- details: HeLa, 24 h, read-out: % of SAHA Response for HDAC3 at 10 μM (gdf11 reporter gene)
assay.readout: activation at 10 µM (%)

I = Nc1cc(Cl)ccc1NC(=O)CCCCCNC(=O)C=C1c2ccccc2-c2ccccc21
II = Nc1ccccc1NC(=O)CCCCNC(=O)C=C1c2ccccc2-c2ccccc21
III = COc1ccc(NC(=O)CCCCCNC(=O)C=C2c3ccccc3-c3ccccc32)c(N)c1
Sort ascending by activation at 10 µM. List the labels in the requested order.
I, III, II
(I: 6%, III: 12%, II: 36%)

I = Cc1ccc(NC(=O)CCCCCNC(=O)C=C2c3ccccc3-c3ccccc32)c(N)c1
II = Nc1ccccc1NC(=O)CCCCCNC(=O)C=C1c2ccccc2-c2ccccc21
III = Nc1ccccc1NC(=O)CCCCCCCNC(=O)C=C1c2ccccc2-c2ccccc21
Hello, I need these entries ordered by activation at 10 µM, highest reading first. Thanks! List the labels in the requested order.
II, III, I

* * *

- target.of.assay: HDAC3 (Homo sapiens)
- Construct: endogenous in cells; host or cells: HeLa
- test: gdf11 reporter gene assay in HeLa cells
- Type: cell-based
- details: HeLa, 24 h, read-out: % of SAHA Response for HDAC3 at 10 μM (gdf11 reporter gene)
assay.readout: activation at 10 µM (%)

Worked cases, activation at 10 µM given:
{"columns": ["smiles.repr", "assay.readout", "measurement.units", "value.measured"],
 "data": [
  ["Nc1cc(C(F)(F)F)ccc1NC(=O)CCCCCNC(=O)C=C1c2ccccc2-c2ccccc21", "activation at 10 µM", "%", 7],
  ["Nc1cc(F)ccc1NC(=O)CCCCNC(=O)C=C1c2ccccc2-c2ccccc21", "activation at 10 µM", "%", 10]
]}

I = Nc1cc(F)ccc1NC(=O)CCCCCCCNC(=O)C=C1c2ccccc2-c2ccccc21
II = O=C(C=C1c2ccccc2-c2ccccc21)NCCCCCCCC(=O)NO
III = Nc1cc(F)ccc1NC(=O)CCCCCNC(=O)C=C1c2ccccc2-c2ccccc21
Endpoint returns the given molecules ordered by ascending activation at 10 µM. List the labels in the requested order.
I, III, II

* * *

- System: HDAC4/5
- test: MEF2 reporter gene assay in HeLa cells
- Format: cell-based
- details: relative to SAHA, 24 hours
- Description: HDAC subtype selectivity inhibition assay of tested compounds was carried out by several reporter gene assays experiments. Briefly, HeLa cells were seeded in 96-well plates the day before transfection to give a confluence of 50-80%. […] To normalize the data from the luciferase assays, β-galactosidase activity from transfected cells was measured using a kit (Promega) as instructed by the manufacturer.
Each entry below lists one item and its recorded % of SAHA Response for HDAC4/5 at 10 μM (MEF2 reporter gene) value.
Give just the number in %; leave the unit off.

Worked cases, % of SAHA Response for HDAC4/5 at 10 μM (MEF2 reporter gene) given:
{"columns": ["molecule", "value.measured"],
 "data": [
  ["Nc1ccccc1NC(=O)CCCCCCCNC(=O)C=C1c2ccccc2-c2ccccc21 [Example 28]", 38],
  ["COc1ccc(NC(=O)CCCCCNC(=O)C=C2c3ccccc3-c3ccccc32)c(N)c1 [Example 16]", 27],
  ["O=C(CCCCCCC(=O)Nc1ccccc1)NO [SAHA, suberoylanilide hydroxamic acid, reference compound]", 100],
  ["Nc1ccccc1NC(=O)CCCCCNC(=O)C=C1c2ccccc2-c2ccccc21 [Example 13]", 118],
  ["Nc1cc(F)ccc1NC(=O)CCCCCCCNC(=O)C=C1c2ccccc2-c2ccccc21 [Example 27]", 16],
  ["Nc1cc(F)ccc1NC(=O)CCCCCNC(=O)C=C1c2ccccc2-c2ccccc21 [Example 12]", 101],
  ["O=C(C=C1c2ccccc2-c2ccccc21)NCCCCCCCC(=O)NO [Example 26]", 87]
]}

Supply % of SAHA Response for HDAC4/5 at 10 μM (MEF2 reporter gene) value. Item: Nc1cc(C(F)(F)F)ccc1NC(=O)CCCCCNC(=O)C=C1c2ccccc2-c2ccccc21 [Example 17]
21

Hey, just so you know, these numbers are from patent US8178577B2.
